B1: RSPH3 (parent)
chain: MTVKPAKAASLARNLAKRRRTYLG

Variants of: B1
experimentDescription: protein stability index of a GFP-peptide fusion (GPS, HEK-293T) (PSI 1-6); higher = more stable;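 further: lentivirally expressed fusions sorted by FACS into six bins by GFP to DsRed ratio, PSI derived from sequencing read proportions per bin multiplied by bin number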
studyConditions: c terminus: a fixed tail appended
// reported protein stability index for each item listed
endpointName: protein stability index

itemSequence: MTVKPAKMASLARNLAKRRRTYLG [A8M]
endpointName: protein stability index
observedMeasurement: 2.62
//
itemSequence: MTVKPAKAASLARNLAKQRRTYLG [R18Q]
endpointName: protein stability index
observedMeasurement: 2.52
//
itemSequence: MTVKPAKAASLARNLAKRRRTYDG [L23D]
endpointName: protein stability index
observedMeasurement: 3.71
//
itemSequence: MTVKPAKAASLARNLAHRRRTYLG [K17H]
endpointName: protein stability index
observedMeasurement: 2.99
//
itemSequence: MTVKPAKAASLALNLAKRRRTYLG [R13L]
endpointName: protein stability index
observedMeasurement: 2.36
//
itemSequence: MTVKPAKAASLARNLAKRRRAYLG [T21A]
endpointName: protein stability index
observedMeasurement: 3.09
//
itemSequence: MTVKPAKAASLARNLAKSRRTYLG [R18S]
endpointName: protein stability index
observedMeasurement: 2.96
//
itemSequence: MTVKPAGAASLARNLAKRRRTYLG [K7G]
endpointName: protein stability index
observedMeasurement: 3.13
//
itemSequence: MTVKPAKAASLARNLNKRRRTYLG [A16N]
endpointName: protein stability index
observedMeasurement: 2.72
//
itemSequence: MTVKPAKAHSLARNLAKRRRTYLG [A9H]
endpointName: protein stability index
observedMeasurement: 3.37
//
itemSequence: MTVKPAKAASLARNLAKKRRTYLG [R18K]
endpointName: protein stability index
observedMeasurement: 2.55
//
itemSequence: MTVKPAKAAWLARNLAKRRRTYLG [S10W]
endpointName: protein stability index
observedMeasurement: 2.47
//
itemSequence: MTVKPAKAASLSRNLAKRRRTYLG [A12S]
endpointName: protein stability index
observedMeasurement: 2.39
//
itemSequence: MTVKPAKAASLAPNLAKRRRTYLG [R13P]
endpointName: protein stability index
observedMeasurement: 2.48
//
itemSequence: MTVKPAKAASLARALAKRRRTYLG [N14A]
endpointName: protein stability index
observedMeasurement: 1.87
//
itemSequence: MTVKPAKAASLARNLAKRRRTSLG [Y22S]
endpointName: protein stability index
observedMeasurement: 3.23
//
itemSequence: MTVKPAKAASLARNLTKRRRTYLG [A16T]
endpointName: protein stability index
observedMeasurement: 2.69
//
itemSequence: MTVKPAKAASLARQLAKRRRTYLG [N14Q]
endpointName: protein stability index
observedMeasurement: 3.41
//
itemSequence: MTVKPAKAESLARNLAKRRRTYLG [A9E]
endpointName: protein stability index
observedMeasurement: 3.65
//
itemSequence: MTVKPAKAASLARNLAKYRRTYLG [R18Y]
endpointName: protein stability index
observedMeasurement: 2.27
//
itemSequence: MTVKPAKAASLARNFAKRRRTYLG [L15F]
endpointName: protein stability index
observedMeasurement: 2.08
//
itemSequence: MTIKPAKAASLARNLAKRRRTYLG [V3I]
endpointName: protein stability index
observedMeasurement: 3.59
//
itemSequence: MTVKPAKAASLARNLAKRRRTALG [Y22A]
endpointName: protein stability index
observedMeasurement: 3.81
//
itemSequence: MTVKPAKAAYLARNLAKRRRTYLG [S10Y]
endpointName: protein stability index
observedMeasurement: 2.03
//
itemSequence: MTVKPAKAASLARELAKRRRTYLG [N14E]
endpointName: protein stability index
observedMeasurement: 2.88
//
itemSequence: MTVKPAKAASLARNLSKRRRTYLG [A16S]
endpointName: protein stability index
observedMeasurement: 3.36
//
itemSequence: MTVKPAKAASLARNLAKRMRTYLG [R19M]
endpointName: protein stability index
observedMeasurement: 3.63
//
itemSequence: MTVKPAKAASLARNLAKRRREYLG [T21E]
endpointName: protein stability index
observedMeasurement: 3.47
//
itemSequence: MTVKPAKAASLARNLAKRRRTYMG [L23M]
endpointName: protein stability index
observedMeasurement: 3.53
//
itemSequence: MTVKPAKAASLARNLAKRLRTYLG [R19L]
endpointName: protein stability index
observedMeasurement: 2.05
//
itemSequence: MTKKPAKAASLARNLAKRRRTYLG [V3K]
endpointName: protein stability index
observedMeasurement: 3.29
//
itemSequence: MTVKPAWAASLARNLAKRRRTYLG [K7W]
endpointName: protein stability index
observedMeasurement: 3.15
//
itemSequence: MTVKPAKAASLARNLAKRPRTYLG [R19P]
endpointName: protein stability index
observedMeasurement: 1.86
//
itemSequence: MTVMPAKAASLARNLAKRRRTYLG [K4M]
endpointName: protein stability index
observedMeasurement: 3.46
//
itemSequence: MTVKPAKAASPARNLAKRRRTYLG [L11P]
endpointName: protein stability index
observedMeasurement: 3.68
//
itemSequence: MTVKPSKAASLARNLAKRRRTYLG [A6S]
endpointName: protein stability index
observedMeasurement: 3
//
itemSequence: MTVKPAKAASLARNLAKRRQTYLG [R20Q]
endpointName: protein stability index
observedMeasurement: 3.83
//
itemSequence: MTVKPAKAASYARNLAKRRRTYLG [L11Y]
endpointName: protein stability index
observedMeasurement: 3.01
//
itemSequence: MTVKNAKAASLARNLAKRRRTYLG [P5N]
endpointName: protein stability index
observedMeasurement: 3.24
//
itemSequence: MTVKPAKAASLARNLAKVRRTYLG [R18V]
endpointName: protein stability index
observedMeasurement: 2.91
//
itemSequence: MTVKPAKAASHARNLAKRRRTYLG [L11H]
endpointName: protein stability index
observedMeasurement: 3.66
//
itemSequence: MWVKPAKAASLARNLAKRRRTYLG [T2W]
endpointName: protein stability index
observedMeasurement: 1.58
//
itemSequence: MTVKPAKAASLARTLAKRRRTYLG [N14T]
endpointName: protein stability index
observedMeasurement: 3.29
//
itemSequence: MTVKPAKAASLAMNLAKRRRTYLG [R13M]
endpointName: protein stability index
observedMeasurement: 2.39
//
itemSequence: MTVKPAKAASLARNLAKRRWTYLG [R20W]
endpointName: protein stability index
observedMeasurement: 2.2
//
itemSequence: MTVKPAKDASLARNLAKRRRTYLG [A8D]
endpointName: protein stability index
observedMeasurement: 3.43
